Sourced from PubChem BioAssay (NCI)

Listing: TGI of selected compounds
- Tested on: CAKI-1 renal
- method notes: NCI tumour cell line growth inhibition, 48 h

{"compound": "O/N=C(\\CC(O)(C(F)(F)F)C(F)(F)F)c1cccs1", "assay result": "> 10 µM"}
{"compound": "C/C(=C\\COP(=O)(O)OP(=O)(O)O)CCCCCCOCc1ccccc1", "assay result": "> 100 µM"}

Give the measured TGI of COc1cccc(NC(=O)CSc2nnc(Cc3ccccc3)o2)c1 .
> 100 µM

====

- Test system: MALME-3M melanoma
- method notes: NCI tumour cell line growth inhibition, 48 h
reported metric: TGI

{"compound": "Cn1nnc2c(C(N)=S)ncn2c1=O", "measured target": "MALME-3M melanoma", "reported metric": "TGI", "assay result": "> 100 µM"}

Give the measured TGI of O=C(Sc1c(-c2ccccc2)c(=O)n(-c2ccccc2)c(=S)n1-c1ccccc1)c1ccccc1 .
> 100 µM

// next record CC(=O)OCC1OC(n2c(C)c(C(C)=O)c(-c3ccco3)c(C#N)c2=S)C(OC(C)=O)C(OC(C)=O)C1OC(C)=O (stereo not drawn)
> 100 µM

====

Listing: log10 of TGI of selected compounds
- System: CCRF-CEM leukemia
- method notes: NCI tumour cell line growth inhibition, 48 h
Kindly note that the scale is log10 and the underlying TGI is in µM.

Give the measured log10 of TGI of O[C@@]1(C#Cc2ccc3c(c2)OCO3)CCC[C@H]1NCc1ccccc1 .
2.00

// next record CN1CCN(c2cc3nc(-c4ccc(Cl)cc4)[nH]c3cc2F)CC1
1.92

// next record CC(=Nc1ccc(N(C)C)cc1)c1ccccc1
1.97

// next record Cc1ccc(N2C(=O)C3c4[nH]c5ccc(C)cc5c4C4CCC(C(C)(C)C)CC4C3C2=O)cc1 (stereo not drawn)
1.43

// next record COc1cc2c(cc1OC)C(C(CCCCCC(CCC(C)C)C1NCCc3cc(OC)c(OC)cc31)CCC(C)C)NCC2 (stereo not drawn)
0.33

====

- Tested on: SK-MEL-2 melanoma
- method notes: NCI tumour cell line growth inhibition, 48 h
reported metric: GI50

Example results:
{"compound": "COC(=O)[C@]12CC[C@@H](C)[C@H](C)[C@@H]1C1=CC[C@@H]3[C@@]4(C)C(C=O)=C[C@@](C)(CO)[C@@H]4[C@H](O)C[C@@]3(C)[C@]1(C)CC2", "assay result": "7.26 µM"}
{"compound": "Cc1ccc(/C=N/NC(=O)c2ccccc2Oc2ccccc2)o1", "assay result": "25.5 µM"}

// moving on: another record for GI50
Give the measured GI50 of C=CCn1c2ccccc2c2c3c(c4c5ccccc5n(CC=C)c4c21)C(=O)N(O)C3=O .
13 µM

====

- Tested on: T-47D breast
- method notes: NCI tumour cell line growth inhibition, 48 h; in the data active = GI50 below about 0.43 µM; inactive = the rest
Your reply should match one of these outcome classes. active, inactive

Example results:
{"compound": "CC12OC(CC(O)C1O)n1c3ccccc3c3c4c(c5c6ccccc6n2c5c31)C(=O)N(CCN1CCOCC1)C4=O (stereo not given)", "assigned class": "inactive"}
{"compound": "COc1ccc(Cn2cc(COc3cc(/C=C/C(=O)c4cc(OC)c(OC)c(OC)c4)ccc3OC)nn2)cc1", "assigned class": "inactive"}
{"compound": "C=C1c2nc3ccccc3n2C=C(c2cccc(Cl)c2)N1Cc1ccc(OC)cc1", "assigned class": "inactive"}
{"compound": "COc1ccc(OC)c(Nc2nc3nonc3nc2Nc2cccc(Br)c2)c1", "assigned class": "active"}

Now look at this one.
Recorded test call requested for C=C1C(=O)O[C@H]2[C@H]1CC/C(COC(=O)c1cccnc1N)=C\CC[C@@]1(C)O[C@@H]21
inactive

====

Listing: TGI of selected molecules
- Test system: UACC-62 melanoma
- method notes: NCI tumour cell line growth inhibition, 48 h

{"molecule": "C/C=C/c1cc2c(cc1O)CC[C@@H]1[C@@H]2CC[C@]2(C)[C@@H](O)CC[C@@H]12", "reported metric": "TGI", "assay result": "15.4 µM"}
{"molecule": "Cc1ccc(Sc2ccccc2C23OC(C)(C4C(=O)N(c5ccccc5)C(=O)C42)N(C)C3=O)cc1 (centres undefined)", "reported metric": "TGI", "assay result": "> 100 µM"}
{"molecule": "CC(=O)OCC1(C)C(O)CCC2(C)C1CCC1CC3CC12CCC3(O)CO (centres undefined)", "reported metric": "TGI", "assay result": "> 100 µM"}

Give the measured TGI of O=C(Nc1ccncc1)C(=O)c1cn(S(=O)(=O)c2cccc(Cl)c2)c2ccccc12 .
> 100 µM

// next record COC(=O)c1c[nH]c2cc(OC(C)C)c(OC(C)C)cc2c1=O
> 100 µM

// next record COc1ccc(CN2C(=O)[C@@H]3Cc4c(OC)c(C)c(OC)c(OC)c4[C@H](/C2=C\c2cc(OC)c(OC)c(C)c2OC)N3C(=O)OC(C)C)cc1
> 100 µM

// next record S=C1NC2=C(CSC/C2=C\c2ccc(Cl)cc2)C(c2ccc(Cl)cc2)N1 (centres undefined)
> 100 µM

// next record C=C(Cl)/C(=C\Cl)CCC(Cl)C(C)C (centres undefined) (tested in a mixture with another compound)
25.3 µM

====

- Test system: K-562 leukemia
- method notes: NCI tumour cell line growth inhibition, 48 h
reported metric: TGI

Example results:
{"molecule": "S=C1NC2=C(CSC/C2=C\\c2ccc(Cl)cc2)C(c2ccc(Cl)cc2)N1 (stereo not given)", "reported metric": "TGI", "assay result": "> 100 µM"}
{"molecule": "Cc1ccc2c(c1)-c1c3c(nn1C)-c1ccccc1SC3O2 (stereo not given)", "reported metric": "TGI", "assay result": "> 100 µM"}
{"molecule": "C=C1C(=O)O[C@H](c2ccoc2)C[C@@H]1[C@@]1(C)CCCC2(C)C(=O)OCC21 (stereo not given in full)", "reported metric": "TGI", "assay result": "> 100 µM"}
{"molecule": "COc1ccc(Oc2nc3cc(N)cc(N)c3nc2-c2ccccc2)cc1", "reported metric": "TGI", "assay result": "> 100 µM"}

Request - read-out TGI | tested on K-562 leukemia | molecule COC(=O)[C@]12CC[C@@H](C)[C@H](C)[C@@H]1C1=CC[C@@H]3[C@@]4(C)C(C=O)=C[C@@](C)(CO)[C@@H]4[C@H](O)C[C@@]3(C)[C@]1(C)CC2
15.5 µM

// next record COC(=O)[C@@H]1C[C@@H](O)CN1C(=O)c1ccc([N+](=O)[O-])cc1[N+](=O)[O-]
> 100 µM

// next record COC(=O)[C@H](Cc1cn(C)cn1)NC(=O)[C@H](CC(=O)OCc1ccccc1)NC(=O)Nc1cc(C(F)(F)F)cc(C(F)(F)F)c1
15.7 µM

====

- Tested on: HCC-2998 colon
- method notes: NCI tumour cell line growth inhibition, 48 h
reported metric: log10 TGI (log10 of the value in µM)
Kindly note that the scale is log10 and the underlying TGI is in µM.

Example results:
{"molecule": "O=S1SC(=S)C2C=CC=NC21 (centres undefined)", "log10 TGI": 1.46}
{"molecule": "Brc1ccccc2cc(-c3ccccc3)nc1-2", "log10 TGI": 1.03}
{"molecule": "CC1=CC(=O)N(c2cccc3c(N4C(=O)C=C(C)C4=O)cccc23)C1=O", "log10 TGI": 1.54}
{"molecule": "NCCCNc1nc2ccccc2c2c(=O)c3cc(F)ccc3sc12", "log10 TGI": 0.50}
{"molecule": "Cc1ccc(N)cc1[As]=[As]c1cc(N)ccc1C (centres undefined)", "log10 TGI": 0.55}
{"molecule": "CC1(C)CC[C@]2(C(=O)O)CC[C@]3(C)C(=CCC4=C5C[C@H](O)[C@H](O)[C@@](C)(CO)[C@@]5(C)CC[C@]43C)[C@@H]2C1", "log10 TGI": 1.81}

Give the measured log10 TGI of Cc1c(C(=O)c2ccccc2)[n+](=O)c2cc(Cl)c(Cl)cc2n1[O-] .
0.46

// next record CC[C@H](C)[C@@H]([C@@H](CC(=O)N1CCC[C@H]1[C@H](OC)[C@@H](C)C(=O)NCCc1ccccc1)OC)N(C)C(=O)C(NC(=O)[C@H](C(C)C)N(C)C)C(C)C (some centres undefined)
-2.64

// next record Oc1ccc2c(=S)cc(-c3ccc(Br)cc3)oc2c1O
0.85

====

Listing: TGI of selected molecules
- System: SF-268 CNS
- method notes: NCI tumour cell line growth inhibition, 48 h

{"molecule": "CC[C@H](C)[C@@H]([C@@H](CC(=O)N1CCC[C@H]1[C@H](OC)[C@@H](C)C(=O)NCCc1ccccc1)OC)N(C)C(=O)C(NC(=O)[C@H](C(C)C)N(C)C)C(C)C (stereo not given in full)", "measured target": "SF-268 CNS", "TGI": "> 10 µM"}
{"molecule": "O=C(OCc1ccccc1)C(Cc1ccc(OCc2ccccc2)cn1)NC(=O)C(F)(F)F (stereo not given)", "measured target": "SF-268 CNS", "TGI": "> 100 µM"}
{"molecule": "Nc1cccc2c1-c1c(cccc1[N+](=O)[O-])C2=O", "measured target": "SF-268 CNS", "TGI": "> 100 µM"}
{"molecule": "O=Cc1cn(CCCCCCCCn2cc(C=O)c3ccccc32)c2ccccc12", "measured target": "SF-268 CNS", "TGI": "> 10 µM"}

// moving on: another record for TGI
Give the measured TGI of CC1=NN(c2ccc(S(=O)(=O)O)cc2)C2(C1)C(Cl)C(=O)N2c1nc2ccccc2s1 (stereo not given) .
> 100 µM
